- target_under_test: ALCAT1 (Homo sapiens (Human))
- Sequence (Q6UWP7 whole entry): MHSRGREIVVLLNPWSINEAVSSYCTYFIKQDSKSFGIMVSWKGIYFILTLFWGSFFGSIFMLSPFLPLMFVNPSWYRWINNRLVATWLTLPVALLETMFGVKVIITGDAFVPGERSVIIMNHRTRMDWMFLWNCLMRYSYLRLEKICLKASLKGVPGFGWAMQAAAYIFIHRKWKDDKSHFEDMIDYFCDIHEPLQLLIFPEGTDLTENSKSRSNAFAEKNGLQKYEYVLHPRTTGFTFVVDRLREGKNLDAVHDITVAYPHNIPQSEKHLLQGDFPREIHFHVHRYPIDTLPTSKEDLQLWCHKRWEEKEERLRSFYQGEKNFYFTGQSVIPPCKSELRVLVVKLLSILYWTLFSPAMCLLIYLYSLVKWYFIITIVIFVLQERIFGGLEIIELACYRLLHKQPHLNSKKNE
- protocol_details: In vitro acyltransferase assay for ALCAT1 inhibitors
- Assay type: biochemical
- settings: 1 μM compound; in vitro enzymatic assay
- Procedure: The human ALCAT1 protein were expressed in Spodoptera frugiperda (Sf9) insect cells by using a Bac-to-Bac baculovirus expression system (Invitrogen) according to the manufacturer's instruction. […] The membrane fraction was resuspended in enzymatic buffer that contain 10% glycerol, quantified for protein concentration, aliquoted, and stored at −80° C. […] Compound inhibitors for ALCAT1 enzyme were analyzed by an in vitro enzymatic assay as detailed above. […]
quantity_name: % inh @ 1 μM

Solved cases below.
[[record]]
substance_smiles = "O=C(Nc1cccc(-c2nnc(-c3ccco3)o2)c1)c1ccccc1OC(F)(F)F"
target_under_test = "ALCAT1 (Homo sapiens (Human))"
recorded_measurement = "61/61%"

[[record]]
substance_smiles = "COc1ccc(Br)cc1C(=O)Nc1cc(-c2nnc(-c3ccco3)o2)ccc1F"
target_under_test = "ALCAT1 (Homo sapiens (Human))"
recorded_measurement = "100/100%"

[[record]]
substance_smiles = "CCOc1ccc(Cl)cc1C(=O)Nc1cc(-c2nnc(-c3ccco3)o2)ccc1F"
target_under_test = "ALCAT1 (Homo sapiens (Human))"
recorded_measurement = "100/100%"


Now look at this entry.
Request: What % inh @ 1 μM value was documented for this compound, `CCOc1ccccc1C(=O)Nc1cc(-c2nnc(-c3ccco3)o2)ccc1F` ?
Result: 100/100%
